src = ChEMBL document CHEMBL1157525

- assay system: RAC-beta serine/threonine-protein kinase (Homo sapiens, UniProt P31751)
- Sequence (P31751 whole entry): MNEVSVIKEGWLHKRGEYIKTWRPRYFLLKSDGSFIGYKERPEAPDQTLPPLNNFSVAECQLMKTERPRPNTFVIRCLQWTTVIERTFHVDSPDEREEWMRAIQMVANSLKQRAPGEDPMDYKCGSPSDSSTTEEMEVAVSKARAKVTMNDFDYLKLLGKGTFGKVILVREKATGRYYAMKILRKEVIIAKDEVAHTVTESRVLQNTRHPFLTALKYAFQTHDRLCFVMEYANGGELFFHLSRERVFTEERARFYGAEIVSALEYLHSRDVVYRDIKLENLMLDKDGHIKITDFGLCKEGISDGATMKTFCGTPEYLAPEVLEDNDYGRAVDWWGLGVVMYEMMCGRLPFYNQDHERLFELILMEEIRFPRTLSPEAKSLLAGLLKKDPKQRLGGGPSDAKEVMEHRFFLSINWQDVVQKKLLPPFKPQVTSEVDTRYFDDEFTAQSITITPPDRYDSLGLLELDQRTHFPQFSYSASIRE
- assay comment: Inhibition of Akt2
pIC50: −log10 of the molar value.
experimental readout: pIC50

- chemical smiles: "O=C1NCCc2nc(-c3ccc(CN4CCC(c5nnc(-c6ccccn6)[nH]5)CC4)cc3)c(-c3ccccc3)cc21"
  assay system: "RAC-beta serine/threonine-protein kinase (Homo sapiens, UniProt P31751)"
  data value: 7.59
- chemical smiles: "O=c1[nH]ccc2nc(-c3ccc(CN4CCC(c5nnc(-c6cnccn6)[nH]5)CC4)cc3)c(-c3ccccc3)cc12"
  assay system: "RAC-beta serine/threonine-protein kinase (Homo sapiens, UniProt P31751)"
  data value: 7.68
- chemical smiles: "O=c1[nH]ccc2nc(-c3ccc(CN4CCC(c5nnc(-c6ncccn6)[nH]5)CC4)cc3)c(-c3ccccc3)cc12"
  assay system: "RAC-beta serine/threonine-protein kinase (Homo sapiens, UniProt P31751)"
  data value: 7.36

P = CN(C)CCN1CCN(c2ncc3cc(-c4ccccc4)c(-c4ccc(CN5CCC(c6nnc(-c7ccccn7)[nH]6)CC5)cc4)nc3n2)CC1
Q = Nc1ccc(-c2nnc(C3CCN(Cc4ccc(-c5nc6cc[nH]c(=O)c6cc5-c5ccccc5)cc4)CC3)[nH]2)cn1
R = O=c1ccc(-c2nnc(C3CCN(Cc4ccc(-c5nc6cc[nH]c(=O)c6cc5-c5ccccc5)cc4)CC3)[nH]2)c[nH]1
S = COc1ccc(-c2nnc(C3CCN(Cc4ccc(-c5nc6cc[nH]c(=O)c6cc5-c5ccccc5)cc4)CC3)[nH]2)cn1
(Q) Reorder: pIC50, max to min. Rank the items, then write their labels in that order.
(A) P, R, S, Q
(P: 8.40, R: 8.10, S: 7.80, Q: 7.48)

###

- assay system: RAC-beta serine/threonine-protein kinase (Homo sapiens)
- assay comment: Inhibition of Akt2 by cellular assay
pIC50: −log10 of the molar value.
experimental readout: pIC50

- chemical smiles: "CN1CCN(c2ccc3nc(-c4ccccc4)c(-c4ccc(CN5CCC(c6nnc(-c7ncccn7)[nH]6)CC5)cc4)nc3n2)CC1"
  assay system: "RAC-beta serine/threonine-protein kinase (Homo sapiens)"
  pIC50: 6.72

P = O=c1ccc(-c2nnc(C3CCN(Cc4ccc(-c5nc6nc(N7CCN(CCO)CC7)ncc6cc5-c5ccccc5)cc4)CC3)[nH]2)c[nH]1
Q = CN(C)CCN1CCN(c2ncc3cc(-c4ccccc4)c(-c4ccc(CN5CCC(c6nnc(-c7ccc(=O)[nH]c7)[nH]6)CC5)cc4)nc3n2)CC1
R = Nc1ccc(-c2nnc(C3CCN(Cc4ccc(-c5nc6cc[nH]c(=O)c6cc5-c5ccccc5)cc4)CC3)[nH]2)cn1
(Q) Reorder: pIC50, max to min. Rank the items, then write their labels in that order.
(A) Q, R, P
(Q: 7.01, R: 6.78, P: 6.55)

###

- assay system: RAC-alpha serine/threonine-protein kinase (Homo sapiens, UniProt P31749)
- Sequence (P31749 whole entry): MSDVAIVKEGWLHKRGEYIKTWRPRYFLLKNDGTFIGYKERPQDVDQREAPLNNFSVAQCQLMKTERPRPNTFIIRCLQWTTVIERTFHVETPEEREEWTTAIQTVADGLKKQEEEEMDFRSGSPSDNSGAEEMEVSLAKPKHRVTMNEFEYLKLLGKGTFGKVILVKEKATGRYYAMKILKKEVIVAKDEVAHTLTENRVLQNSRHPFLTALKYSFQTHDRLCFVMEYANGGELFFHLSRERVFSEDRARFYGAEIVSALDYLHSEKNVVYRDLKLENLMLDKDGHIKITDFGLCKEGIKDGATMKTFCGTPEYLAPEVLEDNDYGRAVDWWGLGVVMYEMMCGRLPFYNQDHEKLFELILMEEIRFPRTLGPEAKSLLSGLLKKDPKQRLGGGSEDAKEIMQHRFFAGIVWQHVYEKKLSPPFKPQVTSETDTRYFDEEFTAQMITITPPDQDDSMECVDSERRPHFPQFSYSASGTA
- assay comment: Inhibition of Akt1 by cellular assay
pIC50: −log10 of the molar value.
experimental readout: pIC50

- chemical smiles: "CN(C)CCN1CCN(c2ncc3cc(-c4ccccc4)c(-c4ccc(CN5CCC(c6nnc(-c7ccc(=O)[nH]c7)[nH]6)CC5)cc4)nc3n2)CC1"
  assay system: "RAC-alpha serine/threonine-protein kinase (Homo sapiens, UniProt P31749)"
  pIC50: 7.16
- chemical smiles: "OCCN1CCN(c2ccc3nc(-c4ccccc4)c(-c4ccc(CN5CCC(c6nc(-c7ncccn7)n[nH]6)CC5)cc4)nc3n2)CC1"
  assay system: "RAC-alpha serine/threonine-protein kinase (Homo sapiens, UniProt P31749)"
  pIC50: 7.14
- chemical smiles: "CN1CCN(c2ncc3cc(-c4ccccc4)c(-c4ccc(CN5CCC(c6nnc(-c7ccc(=O)[nH]c7)[nH]6)CC5)cc4)nc3n2)CC1"
  assay system: "RAC-alpha serine/threonine-protein kinase (Homo sapiens, UniProt P31749)"
  pIC50: 7.15
- chemical smiles: "CN1CCN(c2ccc3nc(-c4ccccc4)c(-c4ccc(CN5CCC(c6nnc(-c7ccc(N)nc7)[nH]6)CC5)cc4)nc3n2)CC1"
  assay system: "RAC-alpha serine/threonine-protein kinase (Homo sapiens, UniProt P31749)"
  pIC50: 7.15
